The measurements presented in this section are drawn from paper PMC4336329.

Molecular target: human ether-à-go-go-related gene (hERG) potassium channel (human, UniProt Q12809);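 note: peak tail current of the secondary pulse compared with the same well before compound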
Sequence (Q12809 whole entry, looked up): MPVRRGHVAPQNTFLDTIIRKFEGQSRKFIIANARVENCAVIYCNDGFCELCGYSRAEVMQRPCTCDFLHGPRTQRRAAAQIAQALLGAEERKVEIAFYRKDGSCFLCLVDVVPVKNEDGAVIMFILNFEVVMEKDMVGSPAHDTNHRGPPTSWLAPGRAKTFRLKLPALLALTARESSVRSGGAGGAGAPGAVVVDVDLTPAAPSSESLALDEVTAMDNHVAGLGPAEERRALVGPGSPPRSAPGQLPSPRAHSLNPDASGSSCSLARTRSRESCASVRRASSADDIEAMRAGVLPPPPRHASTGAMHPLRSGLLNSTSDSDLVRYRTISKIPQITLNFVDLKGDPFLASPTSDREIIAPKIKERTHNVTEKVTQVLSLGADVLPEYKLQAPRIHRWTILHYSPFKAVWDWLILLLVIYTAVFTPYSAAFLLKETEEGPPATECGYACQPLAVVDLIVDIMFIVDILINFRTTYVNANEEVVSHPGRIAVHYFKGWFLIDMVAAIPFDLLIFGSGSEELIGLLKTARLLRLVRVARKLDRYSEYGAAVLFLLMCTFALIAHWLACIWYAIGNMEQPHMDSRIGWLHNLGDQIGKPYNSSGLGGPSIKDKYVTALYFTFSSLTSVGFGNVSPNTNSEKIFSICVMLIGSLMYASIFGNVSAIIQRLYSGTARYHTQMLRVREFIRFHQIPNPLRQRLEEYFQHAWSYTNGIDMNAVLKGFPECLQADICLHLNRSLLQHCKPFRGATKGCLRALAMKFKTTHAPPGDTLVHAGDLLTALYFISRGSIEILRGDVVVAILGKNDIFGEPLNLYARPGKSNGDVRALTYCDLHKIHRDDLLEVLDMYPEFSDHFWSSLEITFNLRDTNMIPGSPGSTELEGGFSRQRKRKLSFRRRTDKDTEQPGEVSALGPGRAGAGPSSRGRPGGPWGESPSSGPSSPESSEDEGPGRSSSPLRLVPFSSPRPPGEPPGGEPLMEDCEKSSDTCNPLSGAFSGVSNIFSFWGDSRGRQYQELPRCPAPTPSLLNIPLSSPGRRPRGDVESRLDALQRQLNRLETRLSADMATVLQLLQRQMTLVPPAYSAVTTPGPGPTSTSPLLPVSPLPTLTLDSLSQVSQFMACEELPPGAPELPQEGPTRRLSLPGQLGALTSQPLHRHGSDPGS
Assay: primary screen, population patch clamp on CHO cells stably expressing hERG; higher = less effect of the substance
About 14,000 (4.5%) of roughly 310,000 compounds showed an effect of 50% or more. Effects have a minus sign here. Only a selection was taken, and strong results are over-represented in it overall.
Reported endpoint: hERG current change (%, negative = inhibition) at 10uM (%)

1. NC(=O)[C@@H]1CC2(CC(c3cccc(NC(=O)COc4ccc(Cl)cc4)c3)=NO2)CN1C(=O)COc1ccc(Cl)cc1 (stereo partly drawn) : -29.4
2. CCOC(=O)N1CCN(C(=O)C2CCN(Cc3cccc(OCc4ccccc4)c3)CC2)CC1.O=C(O)C(=O)O : -58.4
3. Cn1c(=O)c(C(=O)CN2CCCCCC2)c(N)n(Cc2ccccc2)c1=O : -13.5
4. COc1ccc(/C=N/NC(=O)c2ccccc2)cc1CN1CCN(c2ccc(F)cc2)CC1 : -74.5
5. CCCCCC(=O)Nc1cccc(C2=NOC3(C2)C[C@H](C(N)=O)N(C(=O)CC)C3)c1 (stereo partly drawn) : 6.18
6. CCCSc1nc(C)c2cc(C)cc(C)c2n1 : 10.9
7. COc1ccc(/C=N/NC(=O)c2ccc(C)cc2)cc1CN1CCN(c2ccc(F)cc2)CC1 : -69.8
8. Cn1c(O)c(/C=C2\N=c3ccccc3=C2CCNC(=S)NC2CC2)c(=O)n(C)c1=O : -44.6
9. CCOC(=O)C1CCN(Cc2cccc(OCc3ccccc3)c2)CC1.O=C(O)C(=O)O : -43.2
10. COc1ccc(/C=N/NC(=O)c2cccnc2)cc1CN1CCOCC1 : 13.6
11. CCCCCCCOC(=O)C1=C(C)Nc2ncnn2C1c1cccs1 (stereo not drawn) : -0.122
12. COc1ccc(/C=N/NC(=O)c2ccn[nH]2)cc1CN1CCOCC1 : -14.8
13. CCOCCCNC(=O)C1CCN(Cc2ccc(OCc3ccccc3)c(OC)c2)CC1.O=C(O)C(=O)O : -43.3
14. CCCc1nc(N)c(C#N)c(-c2ccco2)c1CC : 14.3
15. O=C(N/N=C/c1ccoc1)c1cc(Br)ccc1O : 14.2
16. CCCc1nc2c(C)cc(C)cc2c(N)c1CC : -59.2
17. C/C=C\C(=O)Nc1cccc(C2=NOC3(C2)C[C@@H](C(N)=O)N(C(=O)CCCCC)C3)c1 (stereo partly drawn) : -31
18. COc1ccc(/C=N/NC(=O)c2cccnc2)cc1CN1CCN(c2ccc(F)cc2)CC1 : -51
19. CCOCCCNC(=O)C1CCN(Cc2cccc(OCc3ccccc3)c2)CC1.O=C(O)C(=O)O : -14.1
20. CCCCCC(=O)N1CC2(CC(c3cccc(NC(=O)c4ccccc4)c3)=NO2)C[C@@H]1C(N)=O (stereo partly drawn) : -54.6
21. CCCCCC(=O)N1CC2(CC(c3cccc(NC(=O)CC)c3)=NO2)C[C@H]1C(N)=O (stereo partly drawn) : -11.6
22. Cn1c2ccccc2c2ncn(Cc3ccc(F)cc3)c(=O)c21 : 8
23. CCCc1nc2ccccc2c(C(=O)O)c1CC : 1.82
24. CCCCNC(=O)C1CCN(Cc2ccc(OCc3ccccc3)c(OC)c2)CC1.O=C(O)C(=O)O : -67.2
25. COc1ccc(/C=N\NC(=O)c2ccccc2)cc1COc1ccccc1 : 20.6
26. Cn1c(=O)c(C(=O)CN2CCN(Cc3ccc4c(c3)OCO4)CC2)c(N)n(Cc2ccccc2)c1=O : -66.8
27. COc1ccc(/C=N\NC(=O)c2ccccc2)cc1COc1ccc(F)cc1 : -0.876
